What normalized growth was measured for each of the following?
Test: chemical genetic growth profiling, strain panel (AID 1159580);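 also: tested at 20 µM; growth read once vehicle control cultures reached saturation at 30 °C; 1 = growth at the plate median or of vehicle wells; lower values mean less growth of the strain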
Conditions: S. cerevisiae deletion strains, growth OD, locus YKL101W, strain HSL1, hits give low values
Hit rate of the full screen: of about 5,500 compounds, about 2,000 (36%) were called active. About 18% were inconclusive and are not listed. The list shows a part of the results.
Provide a numeric answer; units are not to be included.

Note to self: normalized growth recorded for `O=S(=O)(Nc1cc(-c2cccs2)nn1-c1ccc(I)cc1)c1cccc(F)c1` was 0.931

The value of normalized growth measured for the molecule `COc1cc(OC)cc(/C(N)=N\O)c1` turned out to be 0.925

Note to self: normalized growth recorded for `CSc1nc(Sc2n[nH]c(-c3ccccc3)n2)cc(Sc2n[nH]c(-c3ccccc3)n2)n1` was 1.01

Consider CC(Oc1ccc(Cl)cc1Cl)C(=O)NNC(=S)Nc1ccccc1 (stereo not given) . Its measured normalized growth is 0.957

Entry `COC(=O)c1ccc(Oc2c(C(F)(F)F)oc3cc(O)ccc3c2=O)cc1` — recorded normalized growth = 0.945

`CCCCCc1ccc(S(=O)(=O)Nc2ncc(C)cc2Br)cc1` yielded normalized growth of 0.78

Please fill in: normalized growth reported for `Cc1nn(Cc2cccc(C(=O)O/N=C(/N)c3ccc(Cl)cc3)c2)c(C)c1Br` = 0.924

For reference, reported normalized growth for CC1CCc2c(sc3ncnc(Sc4ccccc4)c23)C1 (stereo not given) stands at 0.931

The recorded normalized growth for `O=C(N/N=C\c1cc(Cl)cc(Cl)c1O)c1ccccc1Oc1ccccc1` is 0.89

Note to self: normalized growth recorded for `Cc1ccc(C(=O)Nc2ccc3ccccc3n2)cc1` was 0.95

normalized growth for O=C1OC(Nc2ccccc2SCc2ccccc2Cl)c2ccccc21 (stereo not given) is 0.907

Data point: `O=C1CSC(=Nc2cc(Cl)cc(Cl)c2)N1Cc1cccnc1` ; normalized growth = 0.958

The molecule listed as `O=C(NNc1c(Cl)cccc1Cl)c1ccc([N+](=O)[O-])o1` shows normalized growth equal to 0.884

Per the record, CCOC(=O)C(O)(c1ccc(NC(=O)Nc2ccc(Cl)cc2)cc1)C(F)(F)F (stereo not given) has normalized growth of 0.975

The recorded normalized growth for `N/C(=N/OC(=O)c1ccccc1Cl)c1cccc(CS(=O)(=O)c2ccc(Cl)cc2)c1` is 1.01

Form: molecule = `Cc1c(NCN2C(=O)CCC2=O)cc2c(c1[N+](=O)[O-])C(C)(C)CC2(C)C` ; normalized growth = 0.922

Notebook: `N#CC(C#N)=NNc1ccc(C(F)(F)F)cc1` , normalized growth read as 0.112

// normalized growth lookup, molecule = `O=S(=O)(Nc1ccc(-n2nc(C(F)(F)F)cc2-c2cccs2)cc1)c1ccc(F)cc1` , result: 0.995

normalized growth reading for `O=C(SCc1c(Cl)cccc1Cl)c1ccc([N+](=O)[O-])o1` : 0.571

// normalized growth value for CCC1(c2ccccc2)OC(c2cc(Cl)cc(Cl)c2O)Nc2ccccc21 (stereo not given) : 0.678

normalized growth reading for `O=C(Nc1ccc(OC(F)(F)F)cc1)Nc1cncc(C(F)(F)F)c1` : 0.905

Lab book: normalized growth of `N#CC(C#N)=NNc1cc(C(F)(F)F)ccc1OCC(F)(F)F` noted as 0.787

`N#Cc1c(N)sc2c1CCc1ccccc1-2` has a reported normalized growth of 0.66

GET /value?item= `N#C/C(=C\c1ccc(C(F)(F)F)cc1)c1ccc(O)cc1` &field=normalized growth returns 0.465

The recorded normalized growth for `N#C/C(=N/Nc1ccc(Cl)cc1)C(N)=S` is 0.212

====

Experiment: chemical genetic growth profiling, strain panel (AID 1159580);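 also: tested at 20 µM; growth read once vehicle control cultures reached saturation at 30 °C; 1 = growth at the plate median or of vehicle wells; lower values mean less growth of the strain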
Settings: S. cerevisiae deletion strains, growth OD, locus YCL029C, strain bik1, hits give low values
Hit rate of the full screen: of about 5,500 compounds, about 2,000 (36%) were called active. About 18% were inconclusive and are not listed. The list shows a part of the results.
METRIC_NAME: normalized growth

Per the records, this compound ( `Cn1c([N+](=O)[O-])cnc1COC(N)=O` ) has normalized growth equal to 0.993 (inactive)

# normalized growth (compound: `COC(=O)C1=CO[C@@H](O[C@@H]2O[C@H](CO)[C@@H](O)[C@H](O)[C@H]2O)[C@@H]2[C@@H](C)[C@@H](O)C[C@H]12` ) is 0.989 (inactive)

So, `Cn1c(=O)[nH]c(=O)c2[nH]cnc21` ? Its normalized growth was 0.971 (inactive)

====

Assay: chemical genetic growth profiling, strain panel (AID 1159580);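 also: tested at 20 µM; growth read once vehicle control cultures reached saturation at 30 °C; 1 = growth at the plate median or of vehicle wells; lower values mean less growth of the strain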
Conditions: S. cerevisiae deletion strains, growth OD, locus YDL028C, strain MPS1
Screen size: about 5,500 compounds; about 2,000 (36%) were called active. Not shown: some 18% with an inconclusive outcome. Cut-off read from the data, not from the text of the source: active = normalized growth mostly below about 0.91 (no sharp cut-off); inconclusive = no clear call, values can overlap the other calls; inactive = mostly above about 0.92. This is one part of the list.
Tick one outcome: class 1 for active, class 0 for inactive

[ask] Recorded call for `CSC(SC)=C(C#N)C(=O)c1ccccc1Cl` ?
[reply] class 0

[ask] What did this assay record as the result for `N#C/C(=N/Nc1ccc(Cl)cc1)C(N)=S` ?
[reply] class 1

[ask] Could you please tell me the result logged for O=C1OC(Nc2ccccc2SCc2ccccc2Cl)c2ccccc21 (stereo unspecified) in this assay?
[reply] class 0

[ask] Hi, sorry to bother you, what did the test record for `CCCCCc1ccc(-c2nc(SCC(C)=O)n[nH]2)cc1` ?
[reply] class 0

[ask] Which outcome was entered for the molecule `COC(=O)c1ccc(Oc2c(C(F)(F)F)oc3cc(O)ccc3c2=O)cc1` in this test?
[reply] class 0

[ask] Recorded test outcome, item `CSc1nc(Sc2n[nH]c(-c3ccccc3)n2)cc(Sc2n[nH]c(-c3ccccc3)n2)n1`
[reply] class 0

[ask] So what was the verdict on `CC(C)(C)c1cc(C(=O)/C(C#N)=N\Nc2ccc(Cl)cc2)no1` in this test?
[reply] class 0

[ask] Short answer needed: outcome of this test for CCOC(=O)C1C(c2ccc(Br)cc2)C(C(=O)OCC)C(O)(C(F)(F)F)NC1(O)C(F)(F)F (stereo unspecified) ?
[reply] class 0

[ask] Please let me know the test result on file for `Oc1ccc(-n2nnnc2SCc2ccc(OC(F)(F)F)cc2)cc1` .
[reply] class 0

[ask] Test call, this molecule: `CN(C)c1nc(=S)ss1`
[reply] class 1

[ask] Please indicate how the test categorized `O=C(OCc1ccc(Oc2ccc(Cl)cc2Cl)c([N+](=O)[O-])c1)c1ccc([N+](=O)[O-])o1` .
[reply] class 0

[ask] Which result was noted for this molecule in the test: FC(F)(F)c1ccc(C2Sc3ccccc3N=C3c4ccccc4CC32)cc1 (stereo unspecified)
[reply] class 0

[ask] Record request — test call for `CC(=O)Oc1ccc2c(=O)c(Oc3ccc(Cl)cc3)c(C)oc2c1`
[reply] class 0

[ask] Tell me the recorded outcome of this test for CC(NC(=S)Nc1ccc(Oc2ccc(Cl)cc2)cc1)c1ccccc1 (stereo unspecified) .
[reply] class 0

[ask] In this assay, the call recorded for `O=C(Oc1ccc(C2SCCS2)cc1)c1cccs1` was what?
[reply] class 0

[ask] Test call, this molecule: `NNC(=O)COc1ccc(C2SCCS2)cc1`
[reply] class 0

[ask] What did this assay record as the result for `Cc1nn(Cc2cccc(C(=O)O/N=C(/N)c3ccc(Cl)cc3)c2)c(C)c1Br` ?
[reply] class 0

[ask] I would be grateful if you could indicate the recorded call for `O=C(c1ccc(Cl)cc1)N1CCN(c2ccc(C(F)(F)F)cn2)CC1` .
[reply] class 0

[ask] Call for entry `CC(/C=C/c1ccccc1)=N/OC(=O)c1ccccc1Cl` :
[reply] class 0

[ask] # outcome recorded in this test, key = `O=S(=O)(Nc1cc(-c2cccs2)nn1-c1ccc(I)cc1)c1cccc(F)c1`
[reply] class 0

[ask] Please indicate how the test categorized `N/C(=N/OC(=O)c1ccccc1Cl)c1cccc(CS(=O)(=O)c2ccc(Cl)cc2)c1` .
[reply] class 0

====

Experiment: chemical genetic growth profiling, strain panel (AID 1159580);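 also: tested at 20 µM; growth read once vehicle control cultures reached saturation at 30 °C; 1 = growth at the plate median or of vehicle wells; lower values mean less growth of the strain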
Settings: S. cerevisiae deletion strains, growth OD, locus YHR087W, strain rtc3, hits give low values
Hit rate of the full screen: of about 5,500 compounds, about 2,000 (36%) were called active. Another 18% or so got no clear call; they are omitted. The list shows a part of the results.
METRIC_NAME: normalized growth
// print number alone

normalized growth measured on `CSc1sc(-c2ccn[nH]2)c(-c2ccccc2)c1C#N` = 0.914

The molecule listed as `CCC(=O)Oc1ccc(NC(=S)NCCCO)cc1` has a reported normalized growth of 0.999

Value of normalized growth reported for the molecule `CCc1cccc(C)c1NC(=O)N1CCN(C(=O)OC(C)(C)C)CC1` is 0.995

According to the records, this molecule `COc1ccc(-n2c(SCc3ccc(Br)cc3)nnc2-c2ccco2)cc1` displays normalized growth of 0.996

Item: `O=c1nc(-c2ccccc2)nc(-c2ccccc2)[nH]1` | normalized growth: 0.987

Per the record, `COC(=O)c1csc2c(C(F)(F)F)cc(N3CCN(S(=O)(=O)c4ccc(C)cc4)CC3)nc12` has normalized growth of 1

# normalized growth (molecule: CC(NC(=S)Nc1ccc(Oc2ccc(Cl)cc2)cc1)c1ccccc1 (centres undefined) ) is 0.988

Reported normalized growth for `COc1ccc(-c2c(C(=O)O)sc(SC)c2C#N)cc1` was 0.997

Record `O=C(NC(=S)Nc1ccc(Cl)cc1)c1ccc([N+](=O)[O-])o1` . Reported normalized growth: 0.955

The molecule `FC(F)(F)c1cc(NC2=NCCN=C(Nc3cc(C(F)(F)F)cc(C(F)(F)F)c3)SS2)cc(C(F)(F)F)c1` showed normalized growth equal to 0.997

The molecule listed as `COc1ccccc1N1CCN(S(=O)(=O)c2ccc(C(F)(F)F)cc2)CC1` has a reported normalized growth of 1.03

Form: molecule = `S=C(NCc1ccco1)Nc1ccc(Oc2ccc(Cl)cc2)cc1` ; normalized growth = 0.919

Lab book: normalized growth of `COc1ccc(/C(C#N)=C/c2ccc(OC)c(OC)c2)cc1` noted as 0.962

For this molecule ( `Cc1ccc(/C(C#N)=C2C=C/C(=N/O)C(Cl)=C\2Cl)cc1` ), measured normalized growth is 1

Sample `S=c1nc(-c2ccccc2)[nH][nH]1` ; normalized growth observed: 1.01

normalized growth reading for `N#CCCNc1cc(C(F)(F)F)cc(C(F)(F)F)c1` : 0.989

Reported normalized growth of `Cc1ccc(S(=O)(=O)Oc2ccc(CC#N)cc2)cc1` : 0.953

get_value(item= `CC(=O)CC(C)=Nc1ccc(C(F)(F)F)cc1` , readout=normalized growth) returns 0.971

Entry `CC(=O)/C(=C\N(C)C)Sc1nnc(C(F)(F)F)n1C` ; normalized growth = 1.04
